Target: PAR2 (HT-29 cells, trypsin activation) (Homo sapiens, UniProt P55085)
Construct: host or cells: HT-29 cells
Sequence (P55085 26-397): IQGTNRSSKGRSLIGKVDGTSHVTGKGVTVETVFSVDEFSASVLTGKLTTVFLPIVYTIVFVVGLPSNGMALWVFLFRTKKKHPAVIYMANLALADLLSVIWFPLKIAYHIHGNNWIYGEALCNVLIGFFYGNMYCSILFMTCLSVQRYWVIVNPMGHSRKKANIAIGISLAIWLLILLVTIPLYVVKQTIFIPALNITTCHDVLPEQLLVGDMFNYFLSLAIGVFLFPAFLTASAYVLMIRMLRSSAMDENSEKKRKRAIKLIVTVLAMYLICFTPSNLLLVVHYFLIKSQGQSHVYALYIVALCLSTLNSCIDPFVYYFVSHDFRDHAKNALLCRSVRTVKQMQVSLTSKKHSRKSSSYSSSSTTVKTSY
Assay: Ca FLIPR TETRA assay, ANTAGONIST mode, stimulation with 3.1 U/mL trypsin
Format: cell-based
Details: HT-29 cells, stimulation with 3.1 U/mL trypsin
Rule: IC50 below 200 nM gives Condition met, anything at or above gives Condition not met.

CC(C)c1cc(-c2ccc(F)cc2)nn2cc(C(=O)N3CCN(C(=O)C4(O)CC4)[C@@H](C)C3)nc12 [Compound I-115]    Condition met
O=C(c1cn2nc(-c3ccc(F)cc3)cc(C(F)(F)F)c2n1)N1CCCCC1CO (stereo not shown) [Compound I-47]    Condition not met
CC(C)c1cc(-c2ccc(F)cc2)nn2cc(C(=O)N3CCN(C(=O)C(C)(C)O)CC3(C)C)nc12 [Compound I-174]    Condition met
CCCCC(O)C(=O)N1CCN(C(=O)c2cn3nc(-c4ccc(F)cc4)cc(C(C)C)c3n2)C[C@@H]1C (stereo partly shown) [Compound I-107]    Condition met
C[C@H](O)C(=O)N1CCN(C(=O)c2cn3nc(-c4ccc(F)cc4)cc(C(F)(F)F)c3n2)C(C)(C)C1 [Compound I-39]    Condition not met
CCc1cc(-c2ccc(F)cc2)nn2cc(C(=O)N3CCN(C(=O)CC4CCOCC4)[C@@H](C)C3)nc12 [Compound I-164]    Condition not met

Here's an entry: O=C(c1cn2nc(-c3ccc(F)cc3)cc(C(F)(F)F)c2n1)N1CCN(C(=O)N2CCCCC2)CC1 [Compound I-50] . Is its IC50 below 200 nM?
Condition not met
